viability, T/C by entry:
Tested on: K12877-001-R-J1-PDC complex spheroid viability
protocol-details: Anticancer human tumor K12877-001-R-J1-PDC patient-derived lung adenocarcinoma cell line growth inhibition [RAS]
condition-info: second compound 0.0316 µM; first compound 1 µM; active compounds read low
API: value field is a number in %; no unit string.

# count of solved cases: 4
- molecule: "C[C@@H](NC(=O)c1ncnc(N)c1Cl)c1ncc(C(=O)Nc2cc(C(F)(F)F)c(Cl)cn2)s1 + C#Cc1c(F)ccc2cc(O)cc(-c3ncc4c(N5CC6CCC(C5)N6)nc(OCC56CCCN5CC(F)C6)nc4c3F)c12"
  units: "%"
  viability, T/C: 107
- molecule: "CC(C)NCC(C(=O)N1CCN(c2ncnc3c2C(C)CC3O)CC1)c1ccc(Cl)cc1 (stereo not given) + C=CC(=O)N1CCN(c2nc(OCC3CCCN3C)nc3c(F)c(-c4nc(N)cc(C)c4C(F)(F)F)c(Cl)cc23)C(C)C1"
  units: "%"
  viability, T/C: 63.3
- molecule: "Nc1ccn(C2OC(CO)C(O)C2(F)F)c(=O)n1 (stereo not given) + C#Cc1c(F)ccc2cc(O)cc(-c3ncc4c(N5CC6CCC(C5)N6)nc(OCC56CCCN5CC(F)C6)nc4c3F)c12"
  units: "%"
  viability, T/C: 6.36
- molecule: "CCN1CCN(Cc2ccc(Nc3ncc(F)c(-c4cc(F)c5nc(C)n(C(C)C)c5c4)n3)nc2)CC1 + C#Cc1c(F)ccc2cc(O)cc(-c3ncc4c(N5CC6CCC(C5)N6)nc(OCC56CCCN5CC(F)C6)nc4c3F)c12"
  units: "%"
  viability, T/C: 97.2

With those in mind, consider the next molecule.
Q: For C=CC(=O)N1CCN(c2nc(OCC3CCCN3C)nc3c(F)c(-c4nc(N)cc(C)c4C(F)(F)F)c(Cl)cc23)C(C)C1 (stereo not given) + C#Cc1c(F)ccc2cc(O)cc(-c3ncc4c(N5CC6CCC(C5)N6)nc(OCC56CCCN5CC(F)C6)nc4c3F)c12 , what is its reported viability, T/C?
Result: 72.8

---

Test system: K12877-001-R-J1-PDC complex spheroid viability
protocol-details: Anticancer human tumor K12877-001-R-J1-PDC cell line growth inhibition [RAS]; active = viability on the fitted dose curve at most 10% of control; inactive = the rest;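 further: tumour cells co-cultured with HUVEC and mesenchymal stem cells in spheroids; spheroids exposed to agents for one week before readout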
condition-info: second compound 0.0316 µM; first compound 0.316 µM
Description: RAS pathway inhibitors in Combinations in Complex Spheroids A high-throughput screen of multi-cell type tumor spheroids was designed to identify active combinations of RAS pathway inhibitors and targeted small molecules. Complex spheroids include a stromal component modeled by human endothelial cells (HUVEC) and fibroblasts modeled by human mesenchymal stem cells (MSCs). […] Compounds. […] If the clinical Cmax for an agent had not been determined, the highest concentration tested was 10 microM. […]
# output must be one of 1.0 (active), 0.0 (inactive)

- compound: "C[C@@H](NC(=O)c1ncnc(N)c1Cl)c1ncc(C(=O)Nc2cc(C(F)(F)F)c(Cl)cn2)s1 + C=CC(=O)N1CCN(c2nc(OCC3CCCN3C)nc3c(F)c(-c4nc(N)cc(C)c4C(F)(F)F)c(Cl)cc23)C(C)C1"
  category: 0.0
- compound: "C=CC(=O)Nc1cc(Nc2nccc(-c3cn(C)c4ccccc34)n2)c(OC)cc1N(C)CCN(C)C + C#Cc1c(F)ccc2cc(O)cc(-c3ncc4c(N5CC6CCC(C5)N6)nc(OCC56CCCN5CC(F)C6)nc4c3F)c12"
  category: 0.0
- compound: "CC(C)NCC(C(=O)N1CCN(c2ncnc3c2C(C)CC3O)CC1)c1ccc(Cl)cc1 (stereo unspecified) + C#Cc1c(F)ccc2cc(O)cc(-c3ncc4c(N5CC6CCC(C5)N6)nc(OCC56CCCN5CC(F)C6)nc4c3F)c12"
  category: 0.0
- compound: "CC(Nc1ccc2c(c1)OCCn1cc(N3C(=O)OCC3C(F)F)nc1-2)C(N)=O (stereo unspecified) + C#Cc1c(F)ccc2cc(O)cc(-c3ncc4c(N5CC6CCC(C5)N6)nc(OCC56CCCN5CC(F)C6)nc4c3F)c12"
  category: 0.0

Q: GET /call?item= Cc1nc(N2CCC3(CC2)COC(C)C3N)c(CO)nc1Sc1ccnc(N)c1Cl (stereo unspecified) + C#Cc1c(F)ccc2cc(O)cc(-c3ncc4c(N5CC6CCC(C5)N6)nc(OCC56CCCN5CC(F)C6)nc4c3F)c12 returns the recorded outcome of this test.
Result: 0.0

Q: Moving on to the next compound: CCC(CC)c1cc(NC2CCC(N)C2)n2nccc2n1 (stereo unspecified) + C=CC(=O)N1CCN(c2nc(OCC3CCCN3C)nc3c(F)c(-c4nc(N)cc(C)c4C(F)(F)F)c(Cl)cc23)C(C)C1
Result: 0.0

Q: Moving on to the next compound: CC1(O)CCCC1n1c(=O)c(C(F)F)cc2cnc(NC3CCN(S(C)(=O)=O)CC3)nc21 (stereo unspecified) + C=CC(=O)N1CCN(c2nc(OCC3CCCN3C)nc3c(F)c(-c4nc(N)cc(C)c4C(F)(F)F)c(Cl)cc23)C(C)C1
Result: 0.0

Value source: PubChem BioAssay AID2060894
